# RUN_DESCRIPTION: self-splicing fitness, log relative to wild type (ln ratio); higher = more splicing; Tetrahymena group I intron in knt gene, E. coli kanamycin selection, DiMSum; sequences stand for … in CUCUCU…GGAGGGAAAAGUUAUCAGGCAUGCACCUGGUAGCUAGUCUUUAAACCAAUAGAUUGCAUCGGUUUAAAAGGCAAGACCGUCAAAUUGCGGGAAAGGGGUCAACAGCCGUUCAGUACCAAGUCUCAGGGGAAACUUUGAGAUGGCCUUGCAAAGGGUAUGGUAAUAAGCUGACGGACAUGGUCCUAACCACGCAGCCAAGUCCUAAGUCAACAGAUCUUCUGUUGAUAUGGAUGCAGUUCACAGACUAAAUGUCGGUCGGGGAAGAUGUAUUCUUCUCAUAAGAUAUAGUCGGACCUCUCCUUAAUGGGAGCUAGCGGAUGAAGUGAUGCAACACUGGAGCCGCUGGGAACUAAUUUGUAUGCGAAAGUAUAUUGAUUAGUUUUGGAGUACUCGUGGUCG;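 also: selection with 25 µg/mL kanamycin versus none on LB agar overnight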
# MEASUREMENT_PARAMETERS: 37 °C
Criterion: self-splicing fitness (ln) meeting or surpassing -1. Met: 1. Not met: 0.

SEQUENCE_RECORD | LABEL
AUCUAGCAAUAUUACGUCGA | 1
CGGCAGCAAUAUUACGUCGC | 1
CUGCAGCAAUAUUACGCACG | 1
AUAUAGCAAUAUUACGUAGC | 0
UCGCAGCAAUAUUACGAGUA | 1
GUAAAGCAAUAUUACGAGUC | 0

Could you tell me if the measured self-splicing fitness (ln) of ACAAAGCAAUAUUACGCAGG reaches -1 or more?
0

Could you tell me if the measured self-splicing fitness (ln) of UACAAGCAAUAUUACGCCUA reaches -1 or more?
1

Could you tell me if the measured self-splicing fitness (ln) of CUUCAGCAAUAUUACGACUC reaches -1 or more?
0

Could you tell me if the measured self-splicing fitness (ln) of UCCGAGCAAUAUUACGUCGA reaches -1 or more?
1

Could you tell me if the measured self-splicing fitness (ln) of UCCGAGCAAUAUUACGCAAU reaches -1 or more?
0

Could you tell me if the measured self-splicing fitness (ln) of AAUCAGCAAUAUUACGUCCA reaches -1 or more?
1

Could you tell me if the measured self-splicing fitness (ln) of ACAUAGCAAUAUUACGUUUC reaches -1 or more?
0

Could you tell me if the measured self-splicing fitness (ln) of GCCCAGCAAUAUUACGACAU reaches -1 or more?
1

Could you tell me if the measured self-splicing fitness (ln) of AGAGAGCAAUAUUACGAUCG reaches -1 or more?
1

* * *

# RUN_DESCRIPTION: self-splicing fitness, log relative to wild type (ln ratio); higher = more splicing; Tetrahymena group I intron in knt gene, E. coli kanamycin selection, DiMSum; sequences stand for … in CUCUCU…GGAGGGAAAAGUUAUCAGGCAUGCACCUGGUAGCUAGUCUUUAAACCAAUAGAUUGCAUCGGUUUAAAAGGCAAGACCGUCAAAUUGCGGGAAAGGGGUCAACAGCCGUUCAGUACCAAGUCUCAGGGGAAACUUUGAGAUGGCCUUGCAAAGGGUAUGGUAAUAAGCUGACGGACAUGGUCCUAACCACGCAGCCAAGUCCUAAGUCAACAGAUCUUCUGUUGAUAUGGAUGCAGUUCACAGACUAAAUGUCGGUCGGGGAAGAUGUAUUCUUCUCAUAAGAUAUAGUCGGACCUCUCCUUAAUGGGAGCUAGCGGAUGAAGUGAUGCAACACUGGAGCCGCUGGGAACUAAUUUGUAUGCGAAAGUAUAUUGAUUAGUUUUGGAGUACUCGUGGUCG
# MEASUREMENT_PARAMETERS: 30 °C
Criterion: self-splicing fitness (ln) meeting or surpassing -2. Met: 1 (yes). Not met: 0 (no).

# example entries with known answers
SEQUENCE_RECORD | LABEL
CUCAAGCAAUAUUACGUCGU | 0 (no)
UAUUAGCAAUAUUACGUCCG | 1 (yes)
AUCUAGCAAUAUUACGGAUC | 0 (no)
CGCUAGCAAUAUUACGCGCA | 1 (yes)
UAUGAGCAAUAUUACGUCGG | 0 (no)

Could you tell me if the measured self-splicing fitness (ln) of UUAUAGCAAUAUUACGCCAU reaches -2 or more?
0 (no)

Could you tell me if the measured self-splicing fitness (ln) of CAGGAGCAAUAUUACGUUUU reaches -2 or more?
0 (no)

Could you tell me if the measured self-splicing fitness (ln) of CAACAGCAAUAUUACGAGGU reaches -2 or more?
0 (no)

Could you tell me if the measured self-splicing fitness (ln) of GGUAAGCAAUAUUACGUCUG reaches -2 or more?
1 (yes)

* * *

# RUN_DESCRIPTION: self-splicing fitness, log relative to wild type (ln ratio); higher = more splicing; Tetrahymena group I intron in knt gene, E. coli kanamycin selection, DiMSum; sequences stand for … in CUCUCU…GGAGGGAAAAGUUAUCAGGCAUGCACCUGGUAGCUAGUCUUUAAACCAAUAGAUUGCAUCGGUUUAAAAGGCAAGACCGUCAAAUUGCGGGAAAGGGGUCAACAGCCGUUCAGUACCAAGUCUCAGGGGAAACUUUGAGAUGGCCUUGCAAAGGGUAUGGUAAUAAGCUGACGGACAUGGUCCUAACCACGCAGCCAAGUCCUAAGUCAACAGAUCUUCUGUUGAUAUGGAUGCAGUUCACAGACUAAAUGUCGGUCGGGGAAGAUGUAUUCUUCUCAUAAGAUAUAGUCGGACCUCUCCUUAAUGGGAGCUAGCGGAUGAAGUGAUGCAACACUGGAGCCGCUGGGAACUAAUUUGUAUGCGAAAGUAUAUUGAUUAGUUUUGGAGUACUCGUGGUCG
# MEASUREMENT_PARAMETERS: 30 °C
Criterion: self-splicing fitness (ln) meeting or surpassing -3. Met: Criterion met. Not met: Criterion not met.

# example entries with known answers
SEQUENCE_RECORD | LABEL
AAGUAGCAAUAUUACGUGGC | Criterion met
CAUAAGCAAUAUUACGUGCA | Criterion not met
CUCUAGCAAUAUUACGUGAA | Criterion not met
GGUCAGCAAUAUUACGAACA | Criterion met
UCCCAGCAAUAUUACGAGUA | Criterion met

Now consider a different sequence.
Could you tell me if the measured self-splicing fitness (ln) of CUGGAGCAAUAUUACGGAUG reaches -3 or more?
Criterion met

* * *

# RUN_DESCRIPTION: self-splicing fitness, log relative to wild type (ln ratio); higher = more splicing; Tetrahymena group I intron in knt gene, E. coli kanamycin selection, DiMSum; sequences stand for … in CUCUCU…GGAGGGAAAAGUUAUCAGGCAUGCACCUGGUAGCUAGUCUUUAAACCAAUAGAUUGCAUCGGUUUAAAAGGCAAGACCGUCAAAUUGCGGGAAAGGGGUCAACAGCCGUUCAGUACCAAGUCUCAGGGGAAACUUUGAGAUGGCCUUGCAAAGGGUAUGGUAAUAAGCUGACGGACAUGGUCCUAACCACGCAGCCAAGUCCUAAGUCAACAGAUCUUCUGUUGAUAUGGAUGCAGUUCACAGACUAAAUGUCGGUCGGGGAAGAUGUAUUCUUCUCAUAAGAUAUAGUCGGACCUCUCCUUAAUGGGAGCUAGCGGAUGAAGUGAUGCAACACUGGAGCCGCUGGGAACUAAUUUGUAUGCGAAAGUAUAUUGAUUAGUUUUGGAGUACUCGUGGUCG
# MEASUREMENT_PARAMETERS: 37 °C
RECORDED_METRIC: self-splicing fitness (ln)

Previously resolved entries follow.
SEQUENCE_RECORD | self-splicing fitness (ln)
UCGCAGCAAUAUUACGAACG | -1.05
GAGUAGCAAUAUUACGUAUG | -2.51

I have this sequence here, UGAUAGCAAUAUUACGCGCU , and I need its recorded self-splicing fitness (ln).
-0.36

I have this sequence here, GCUAAGCAAUAUUACGAGGA , and I need its recorded self-splicing fitness (ln).
-0.693

I have this sequence here, UACUAGCAAUAUUACGGAAA , and I need its recorded self-splicing fitness (ln).
-1.27

I have this sequence here, CACCAGCAAUAUUACGAAAC , and I need its recorded self-splicing fitness (ln).
-2.12

I have this sequence here, GGAAAGCAAUAUUACGCAGA , and I need its recorded self-splicing fitness (ln).
-1.52

* * *

# self-splicing fitness (ln) per record follows
# RUN_DESCRIPTION: self-splicing fitness, log relative to wild type (ln ratio); higher = more splicing; Tetrahymena group I intron in knt gene, E. coli kanamycin selection, DiMSum; sequences stand for … in CUCUCU…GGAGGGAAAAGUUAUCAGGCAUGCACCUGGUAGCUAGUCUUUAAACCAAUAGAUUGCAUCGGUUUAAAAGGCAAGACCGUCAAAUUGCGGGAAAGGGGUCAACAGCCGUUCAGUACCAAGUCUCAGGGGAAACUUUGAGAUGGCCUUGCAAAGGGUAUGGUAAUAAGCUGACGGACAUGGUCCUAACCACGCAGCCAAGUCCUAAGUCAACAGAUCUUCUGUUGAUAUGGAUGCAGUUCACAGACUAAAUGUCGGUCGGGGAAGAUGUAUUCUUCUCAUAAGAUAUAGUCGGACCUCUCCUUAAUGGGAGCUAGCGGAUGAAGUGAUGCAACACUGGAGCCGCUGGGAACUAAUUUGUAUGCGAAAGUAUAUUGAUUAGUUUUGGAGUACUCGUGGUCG
# MEASUREMENT_PARAMETERS: 30 °C
API doc: respond with a numeric literal and nothing else, no unit.

Previously resolved entries follow.
SEQUENCE_RECORD | RECORDED_METRIC | RECORDED_NUMBER
ACUCAGCAAUAUUACGACUC | self-splicing fitness (ln) | -0.493
CUUAAGCAAUAUUACGUGUU | self-splicing fitness (ln) | -4.03

I have this sequence here, UGCGAGCAAUAUUACGGUCA , and I need its recorded self-splicing fitness (ln).
-0.764

I have this sequence here, GAAUAGCAAUAUUACGUAUA , and I need its recorded self-splicing fitness (ln).
-2.32

I have this sequence here, UGCAAGCAAUAUUACGCGGC , and I need its recorded self-splicing fitness (ln).
-2.85

I have this sequence here, UCGCAGCAAUAUUACGGAAC , and I need its recorded self-splicing fitness (ln).
-1.51

I have this sequence here, UACGAGCAAUAUUACGUGGA , and I need its recorded self-splicing fitness (ln).
-3.55

I have this sequence here, ACUAAGCAAUAUUACGUUCG , and I need its recorded self-splicing fitness (ln).
-1.06

I have this sequence here, CGUGAGCAAUAUUACGCCUG , and I need its recorded self-splicing fitness (ln).
-1.76

I have this sequence here, ACUCAGCAAUAUUACGCUUA , and I need its recorded self-splicing fitness (ln).
-1.14

I have this sequence here, AACCAGCAAUAUUACGGCCA , and I need its recorded self-splicing fitness (ln).
-0.365

I have this sequence here, CAUUAGCAAUAUUACGUGGU , and I need its recorded self-splicing fitness (ln).
-4.46

I have this sequence here, AAUCAGCAAUAUUACGAAAA , and I need its recorded self-splicing fitness (ln).
-1.45

I have this sequence here, AAUCAGCAAUAUUACGCAGA , and I need its recorded self-splicing fitness (ln).
-1.04

I have this sequence here, AGGGAGCAAUAUUACGCACU , and I need its recorded self-splicing fitness (ln).
-3.18

I have this sequence here, CGAUAGCAAUAUUACGGGCA , and I need its recorded self-splicing fitness (ln).
-2.06

I have this sequence here, UUCCAGCAAUAUUACGGCUC , and I need its recorded self-splicing fitness (ln).
-2.48

I have this sequence here, UCGAAGCAAUAUUACGGUUG , and I need its recorded self-splicing fitness (ln).
-1.65

I have this sequence here, GUUUAGCAAUAUUACGCGGG , and I need its recorded self-splicing fitness (ln).
-2.42

I have this sequence here, UUCAAGCAAUAUUACGUAGG , and I need its recorded self-splicing fitness (ln).
-1.53

I have this sequence here, UAUGAGCAAUAUUACGAGUU , and I need its recorded self-splicing fitness (ln).
-3.21
